Data provenance is paper PMC11542720.

# PROTOCOL: Capillary electrophoresis, effective electrophoretic mobility (acetone as EOF marker)
# Format: physicochemical
# TEST CONDITIONS: pH 7.4; I = 25 mmol/L, 11 kV, 25 °C, three replicates
Where a name gives a salt, the structure may show the parent alone.
Each record here notes measured µeff7.4.

Sample answers from the record:
>  <COMPOUND>
c1ccc2c(c1)CCCC2C1=NCCN1 (stereo not shown) [Tetrahydrozoline, tetrahydrozoline hydrochloride]

>  <µeff7.4>
24.299 ± 0.057 10^-5 cm^2 V^-1 s^-1

$$$$
>  <COMPOUND>
CN1CCN(C2=Nc3cc(Cl)ccc3Nc3ccccc32)CC1

>  <µeff7.4>
9.204 ± 0.061 10^-5 cm^2 V^-1 s^-1

$$$$

## Task Would you kindly share the measured µeff7.4 for CN[C@@H](C)[C@@H](O)c1ccccc1 [Pseudoephedrine, pseudoephedrine hydrochloride] ?
## Result 23.691 ± 0,051 10^-5 cm^2 V^-1 s^-1

## Task Would you kindly share the measured µeff7.4 for N=C(N)NC(=O)c1nc(Cl)c(N)nc1N [Amiloride, Amiloride hydrochloride] ?
## Result 21.786 ± 0.082 10^-5 cm^2 V^-1 s^-1

## Task Would you kindly share the measured µeff7.4 for Cc1cc(C(C)(C)C)c(O)c(C)c1CC1=NCCN1 [Oxymetazoline, oxymetazoline hydrochloride] ?
## Result 19.061 ± 0.049 10^-5 cm^2 V^-1 s^-1

## Task Would you kindly share the measured µeff7.4 for `Cc1cc2c(s1)Nc1ccccc1N=C2N1CCN(C)CC1` ?
## Result 10.679 ± 0.039 10^-5 cm^2 V^-1 s^-1

## Task Would you kindly share the measured µeff7.4 for COc1nc(C)nc(Cl)c1N=C1NCCN1 [Moxonidine, moxonidine hydrochloride] ?
## Result 10.907 ± 0.078 10^-5 cm^2 V^-1 s^-1

* * *

Each record here notes measured µeff4.4.
# PROTOCOL: Capillary electrophoresis, effective electrophoretic mobility (acetone as EOF marker)
# Type: physicochemical
# TEST CONDITIONS: pH 4.4; I = 25 mmol/L, 11 kV, 25 °C, three replicates
Counter-ions that a name gives are not always drawn.

Sample answers from the record:
>  <MOLECULE>
CNCCCC12CCC(c3ccccc31)c1ccccc12 [Maprotiline, maprotiline hydrochloride]

>  <RESULT>
20.559 ± 0.034 10^-5 cm^2 V^-1 s^-1

$$$$
>  <MOLECULE>
c1cc2c(c(NC3=NCCN3)c1)CCCC2 [Tramazoline, Tramazoline hydrochloride]

>  <RESULT>
24.393 ± 0.067 10^-5 cm^2 V^-1 s^-1

$$$$
>  <MOLECULE>
CN[C@@H](C)[C@H](O)c1ccccc1 [Ephedrine, ephedrine hydrochloride]

>  <RESULT>
25.942 ± 0.032 10^-5 cm^2 V^-1 s^-1

$$$$

## Task Would you kindly share the measured µeff4.4 for `Cc1cc2c(s1)Nc1ccccc1N=C2N1CCN(C)CC1` ?
## Result 33.632 ± 0.036 10^-5 cm^2 V^-1 s^-1

## Task Would you kindly share the measured µeff4.4 for `Nc1nc(N)c2nc(-c3ccccc3)c(N)nc2n1` ?
## Result 22.146 ± 0.019 10^-5 cm^2 V^-1 s^-1

* * *

# PROTOCOL: RP-HPLC retention on XTerra RP18, methanol/buffer; extrapolated retention factor log kw and slope S
# Type: physicochemical
# TEST CONDITIONS: pH 7.4; slope of log k vs methanol volume fraction
Structures can show the parent of a compound that is named as a salt.
RECORDED ENDPOINT: S (slope)
Please reply with the value in numeric form only.

Sample answers from the record:
>  <COMPOUND>
c1cc2c(c(NC3=NCCN3)c1)CCCC2 [Tramazoline, Tramazoline hydrochloride]

>  <S (slope)>
-3.51

$$$$
>  <COMPOUND>
CNCCCC12CCC(c3ccccc31)c1ccccc12 [Maprotiline, maprotiline hydrochloride]

>  <S (slope)>
-3.18

$$$$
>  <COMPOUND>
N=C(N)NC(=O)Cc1c(Cl)cccc1Cl [Guanfacine, guanfacine hydrochloride]

>  <S (slope)>
-3.21

$$$$

## Task Would you kindly share the measured S (slope) for CCOc1ccccc1OCCN[C@H](C)Cc1ccc(OC)c(S(N)(=O)=O)c1 [Tamsulosin, tamsulosin hydrochloride] ?
## Result -4.51

## Task Would you kindly share the measured S (slope) for Clc1ccc2nsnc2c1NC1=NCCN1 [Tizanidine, tizanidine hydrochloride] ?
## Result -2.23

## Task Would you kindly share the measured S (slope) for `CN1CCN(C2=Nc3cc(Cl)ccc3Nc3ccccc32)CC1` ?
## Result -4.88

## Task Would you kindly share the measured S (slope) for CN[C@@H](C)[C@@H](O)c1ccccc1 [Pseudoephedrine, pseudoephedrine hydrochloride] ?
## Result -2.67

## Task Would you kindly share the measured S (slope) for COc1ccccc1OCCNCC(O)COc1cccc2[nH]c3ccccc3c12 (centres unmarked) ?
## Result -5.44
